All values here come from PubChem BioAssay (NCI).

test system: COLO 205 colon; assay: NCI-60 one-dose screen, 48 h (100 = growth as untreated, 0 = no growth, -100 = all killed); conditions: 10 µM unless noted
This is part of a sample that, as a whole, favours compounds with a hit. Of some 83,000 tested, about 20% had one in any assay.
Measured growth, listed per entry for reference.
endpoint name: growth (%)

* NC1=Nc2cc(OCCCCN3Cc4ccccc4C3)c(OCC3CC3)cc2C12CCCC2 | -74.5
* CC1(C)N=C(N)N=C(N)N1c1cccc(CCc2ccccc2)c1 | 29.5
* O=C1/C(=C2\SC(=S)N(C3CC3)C2=O)SC(=S)N1C1CC1 | 117
* COc1ccc2c(c1)/C(=N/c1n[nH]c(=S)s1)C(=O)N2 | 118
* C[C@H](CCCC(=O)NCC#CCN1CCN(C)CC1)[C@H]1CC[C@H]2[C@@H]3CC[C@@H]4CC(=O)CC[C@]4(C)[C@H]3CC[C@]12C | 95.1
* O=[N+]([O-])c1cc(NS(=O)(=O)c2ccccc2)ccc1NS(=O)(=O)c1ccccc1 | 109
* CC(=O)OC[C@]12CC[C@@H]([C@@H](C)c3nnc(-c4ccncc4)o3)[C@@H]1[C@H]1CC[C@@H]3[C@@]4(C)CC[C@H](OC(C)=O)C(C)(C)[C@@H]4CC[C@@]3(C)[C@]1(C)CC2 | 82.4
* O=C1/C(=C/c2ccccn2)NC(=S)N1c1ccccc1Cl | 66.4
* O=C1c2ccccc2C(=O)c2c1cc1c(c2[N+](=O)[O-])OCO1 | 48
* CCOC(=O)C1=C(C)/C(=C\c2[nH]c(C)c(C(=O)OCC)c2C)N=C1C | 85.2
* COc1ccc(C2=NN(C(C)=O)C(c3cn(-c4ccccc4)nc3-c3ccc(Cl)cc3)C2)cc1 (stereo not drawn) | 4.9
* CCN1CCN(CCNc2nccc(-c3c(-c4ccc(F)c(OC)c4)nc4sccn34)n2)S1(=O)=O | 62.3
* CN1CCN(c2ccc(NC(=O)c3cncnc3Nc3ccc(OCc4cccc(F)c4)c(Cl)c3)cc2)CC1 | 6.12
* CN(C)c1ccc(-c2nc(-c3ccccc3)c(-c3ccccc3)[nH]2)cc1 | 129
* Nc1nc(NC(=O)Nc2ccc(C(=O)O)cc2)nn1-c1ccc(S(N)(=O)=O)cc1 | 111
* Cn1cc(-c2ccc(-c3cn(C)c4ccc(Cl)cc34)[nH]2)c2cc(Cl)ccc21 | -91.5
* CN(CCCNC(=O)Cc1ccc2ccc3cccc4ccc1c2c34)CCCNc1cc(-c2ccc3ccccc3c2)nc2ccccc12 | -77.3
* Cc1nc2cc(O)c(O)cc2cc1Oc1ccc(NC(=O)Nc2ccc(Cl)c(Cl)c2)cc1 | 34.7
